Source listed as patent US10988477B2.

Target: intracellular GCN2 (phosphorylation of the GCN2 substrate eIF2α) (Homo sapiens, UniProt Q9P2K8)
Sequence (Q9P2K8 whole entry): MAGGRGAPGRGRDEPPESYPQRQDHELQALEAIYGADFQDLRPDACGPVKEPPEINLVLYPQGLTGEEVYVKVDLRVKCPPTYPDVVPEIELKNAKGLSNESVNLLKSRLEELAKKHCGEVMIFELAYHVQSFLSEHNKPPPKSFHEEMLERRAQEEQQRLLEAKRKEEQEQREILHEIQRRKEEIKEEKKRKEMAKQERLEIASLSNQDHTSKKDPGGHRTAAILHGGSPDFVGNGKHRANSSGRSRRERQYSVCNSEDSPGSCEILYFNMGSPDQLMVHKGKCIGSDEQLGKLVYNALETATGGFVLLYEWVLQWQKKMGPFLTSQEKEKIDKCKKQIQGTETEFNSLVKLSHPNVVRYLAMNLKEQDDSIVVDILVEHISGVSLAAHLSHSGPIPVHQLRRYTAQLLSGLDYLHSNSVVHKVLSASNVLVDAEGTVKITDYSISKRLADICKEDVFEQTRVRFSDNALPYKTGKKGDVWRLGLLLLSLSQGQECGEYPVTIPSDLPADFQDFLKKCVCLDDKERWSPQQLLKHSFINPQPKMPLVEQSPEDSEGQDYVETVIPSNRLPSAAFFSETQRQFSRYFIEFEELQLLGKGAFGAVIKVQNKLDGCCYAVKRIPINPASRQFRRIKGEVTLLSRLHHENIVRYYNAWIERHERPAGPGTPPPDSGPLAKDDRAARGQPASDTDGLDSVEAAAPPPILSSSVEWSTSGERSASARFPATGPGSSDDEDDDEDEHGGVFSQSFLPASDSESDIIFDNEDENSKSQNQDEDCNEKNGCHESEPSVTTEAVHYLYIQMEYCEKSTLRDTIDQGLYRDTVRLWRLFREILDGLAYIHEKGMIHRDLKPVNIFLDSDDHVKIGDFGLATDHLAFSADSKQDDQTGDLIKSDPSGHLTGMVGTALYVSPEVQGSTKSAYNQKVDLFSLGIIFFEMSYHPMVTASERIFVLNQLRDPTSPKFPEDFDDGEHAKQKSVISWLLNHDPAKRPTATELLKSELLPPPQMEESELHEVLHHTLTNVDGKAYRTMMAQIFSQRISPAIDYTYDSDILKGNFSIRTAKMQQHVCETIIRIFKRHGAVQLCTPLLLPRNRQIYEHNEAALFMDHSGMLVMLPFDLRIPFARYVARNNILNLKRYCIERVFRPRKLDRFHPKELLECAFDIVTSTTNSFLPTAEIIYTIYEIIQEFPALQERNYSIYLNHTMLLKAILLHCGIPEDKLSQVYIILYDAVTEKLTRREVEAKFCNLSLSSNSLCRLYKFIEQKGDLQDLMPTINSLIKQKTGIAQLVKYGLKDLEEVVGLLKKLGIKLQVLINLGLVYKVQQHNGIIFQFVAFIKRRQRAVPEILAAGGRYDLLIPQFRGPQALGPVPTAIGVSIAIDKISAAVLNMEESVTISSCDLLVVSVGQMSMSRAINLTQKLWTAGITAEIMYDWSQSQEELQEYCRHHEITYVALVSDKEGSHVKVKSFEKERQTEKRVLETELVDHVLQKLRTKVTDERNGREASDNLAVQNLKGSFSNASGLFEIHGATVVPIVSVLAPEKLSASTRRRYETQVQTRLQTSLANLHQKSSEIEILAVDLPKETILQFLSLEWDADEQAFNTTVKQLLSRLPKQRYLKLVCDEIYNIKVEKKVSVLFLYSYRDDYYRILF
Experiment: GCN2 cellular inhibition assay (AlphaScreen SureFire P-eIF2α Ser51, borrelidin-treated U2OS cells)
Type: cell-based
Settings: compounds of Formula II; biomarker assay, phosphorylated eIF2α Ser51 in borrelidin-treated U2OS cells
Reported IC50 values are given for each entry in this list.

COMPOUND: CC1C(CS(C)(=N)=O)CCCN1c1cc(-c2cnc3ccc(C(F)F)nn23)ncn1 (centres unmarked) [II-487]
IC50: < 0.5 µM
--
COMPOUND: CS(=O)(=O)N1CCC2(CC1)CN(c1cc(-c3cnc4ccc(C(F)F)nn34)ncn1)CCO2 [II-287]
IC50: > 5 µM
--
COMPOUND: CS(=O)(=O)NCC1CN(c2cc(-c3cnc4ccc(C(F)F)nn34)ncn2)CC1O (centres unmarked) [II-152]
IC50: > 5 µM
--
COMPOUND: OCCC1CCCN(c2cc(-c3cnc4ccc(C(F)F)nn34)ncn2)C1 (centres unmarked) [II-497]
IC50: 0.5 to 5 µM
--
COMPOUND: NS(=O)(=O)N1CCCN(c2cc(-c3cnc4ccc(C(F)F)nn34)ncn2)CC1 [II-24]
IC50: > 5 µM
--
COMPOUND: NC(=O)c1cc(C2CCCN(c3cc(-c4cnc5ccc(C(F)F)nn45)ncn3)C2)n[nH]1 (centres unmarked) [II-205]
IC50: 0.5 to 5 µM
--
COMPOUND: CC1CCC(CNS(C)(=O)=O)CN1c1cc(-c2cnc3ccc(C(F)F)nn23)ncn1 (centres unmarked) [II-3]
IC50: 0.5 to 5 µM
--
COMPOUND: OC[C@H]1CCCN(c2cc(-c3cnc4ccc(C(F)(F)F)nn34)ncn2)C1 [II-516]
IC50: 0.5 to 5 µM
--
COMPOUND: CN1CCN(c2cc(-c3cnc4ccc(C(F)F)nn34)ncn2)C[C@H]1CNS(C)(=O)=O [II-410]
IC50: 0.5 to 5 µM
--
COMPOUND: Cc1[nH]ncc1[C@@H]1CN(c2cc(-c3cnc4ccc(C(F)(F)F)nn34)ncn2)C[C@@H](C)O1 [II-766]
IC50: > 5 µM
--
COMPOUND: CCN1CCN(c2cc(-c3cnc4ccc(C(F)F)nn34)ncn2)C(C)C1CNS(C)(=O)=O (centres unmarked) [II-340]
IC50: < 0.5 µM
--
COMPOUND: Cc1cnc(N2CCCC(CNS(C)(=O)=O)C2)cc1-c1cnc2ccc(C(F)F)nn12 (centres unmarked) [II-733]
IC50: > 5 µM
--
COMPOUND: CC1C(CS(C)(=N)=O)OCCN1c1cc(-c2cnc3ccc(C(F)F)nn23)ncn1 (centres unmarked) [II-425]
IC50: 0.5 to 5 µM
--
COMPOUND: CS(=O)(=O)NC[C@H]1CCCN(c2cc(-c3cnc4ccc(C(F)F)nn34)cc(O)n2)C1 [II-111]
IC50: 0.5 to 5 µM
--
COMPOUND: FC(F)c1ccc2ncc(-c3ccnc(N4CCOC(c5cn[nH]c5)C4)c3)n2n1 (centres unmarked) [II-108]
IC50: 0.5 to 5 µM
--
COMPOUND: FC(F)c1ccc2ncc(-c3cc(C4CCCN(C5COC5)C4)ncn3)n2n1 (single isomer, unassigned) [II-241]
IC50: > 5 µM
--
COMPOUND: NC(=O)C1CN(c2cc(-c3cnc4ccc(C(F)F)nn34)ncn2)c2ccccc21 (centres unmarked) [II-16]
IC50: > 5 µM
